Listed below: GI50 values for each entry.
# System: HCT-116
# test_method_notes: NCI tumour cell line growth inhibition, 48 h
Active and inactive are the calls of the source. Rule as the data show it: active = GI50 up to about 1.1 µM and inactive = higher.

[[record]]
compound = "N#C/C(=C\\NC(=S)Nc1ccc(S(=O)(=O)Nc2ccccn2)cc1)C(N)=O"
target_or_system = "HCT-116"
observed_measurement = "> 100 µM (inactive)"

[[record]]
compound = "CC(=O)CC1CCC(=O)CCC(=O)OC(CC(C)=O)CCC(=O)CCC(=O)O1 (centres undefined)"
target_or_system = "HCT-116"
observed_measurement = "> 100 µM (inactive)"

[[record]]
compound = "O=C(O)c1ccc(Nc2cnc3ccc(C(F)(F)F)cc3n2)cc1"
target_or_system = "HCT-116"
observed_measurement = "20.1 µM (inactive)"


Alright, here's another compound for you.
Give the measured GI50 for `CCN1CCN(c2ccc(Nc3ccnc4ccc5nn(C)nc5c34)cc2)CC1`
5.58 µM (inactive)
